Measured values drawn from patent US9684238B2 for this set.

- measurement-description: Absorption coefficient (absorbance of 0.001% solution in tetrahydrofuran)
- Format: physicochemical
- reported-conditions: 0.001% (wt/vol) solution in tetrahydrofuran
- Protocol: A 0.001% (wt/vol) solution of each of the compounds 1, 2, 4, 6, 8, 9, 11, 12, 13, 15, 16, D-1, D-3, D-4, D-7, D-8, D-9, D-12, D-14, D-15, D-20, C-1, and C-2 in tetrahydrofuran was prepared, and its absorbance was measured with a spectrophotometer (manufactured by Hitachi High-Technologies Corporation, trade name: “U-3900H”). An absorption maximum wavelength (Amax) at a wavelength of from 280 nm to 400 nm was read from an absorption spectrum obtained with the spectrophotometer.
measured-attribute: Absorption coefficient at 365 nm (mL/mg/cm)
Answers are plain numbers, in mL/mg/cm.

Reference set, count: 5
{"columns": ["compound", "Absorption coefficient at 365 nm (mL/mg/cm)"],
 "data": [
  ["CCn1c2ccc(C(=O)c3ccccc3C)cc2c2cc(/C(C)=N/OC(C)=O)ccc21 [Compound C-1, reference compound]", 4.4],
  ["CCCCCCC1(CCCCCC)c2cc(C(=O)C(=NOC(C)=O)c3cc(C)ccc3C)ccc2-c2ccc(C(=O)c3ccc([N+](=O)[O-])cc3)cc21", 9.2],
  ["CCCCCCC1(CCCCCC)c2cc(C(=O)c3ccc([N+](=O)[O-])cc3)ccc2-c2ccc(C(CC(C)N(OC(C)=O)C(C)=O)=NOC(C)=O)cc21 (racemic)", 11.8],
  ["CCCC1(CCC)c2cc(C(=NOC(C)=O)c3ccccc3)ccc2-c2ccc([N+](=O)[O-])cc21", 33.2],
  ["CCCCCCC1(CCCCCC)c2cc(C(=O)c3cccs3)ccc2-c2ccc(C(CC(C)N(OC(C)=O)C(C)=O)=NOC(C)=O)cc21 (racemic)", 6.6]
]}

Kindly review the next compound as well.
Field request: Absorption coefficient at 365 nm | item: CCCC1(CCC)c2cc(C(=O)c3ccc([N+](=O)[O-])cc3)ccc2-c2ccc(C(C)=NOC(C)=O)cc21
21.9

###

So I've got a bunch of compounds here, and I need their Average transmittance (700 nm to 400 nm) Solution values.
- measurement-description: Average transmittance of composition
- Format: physicochemical
- reported-conditions: photosensitive composition, quartz cell, optical path length 1 cm
One number for each entry, in %.

Reference set, count: 3
{"columns": ["compound", "experimental-value"],
 "data": [
  ["CCCCCCC1(CCCCCC)c2cc(C(=O)C(=NOC(C)=O)c3cc(C)ccc3C)ccc2-c2ccc(C(=O)c3ccc([N+](=O)[O-])cc3)cc21", 79.2],
  ["CCCCCCC1(CCCCCC)c2cc(C(=O)c3ccccc3C)ccc2-c2ccc(C(C)=NOC(C)=O)cc21", 95.4],
  ["CCCC1(CCC)c2cc(C(=O)c3ccccc3C)ccc2-c2ccc(/C(C)=N/OC(C)=O)cc21", 96.3]
]}

I have 4 compounds here; please give me Average transmittance (700 nm to 400 nm) Solution for each one.
1. CCn1c2ccc(C(=O)c3ccccc3C)cc2c2cc(/C(C)=N/OC(C)=O)ccc21 [Compound C-1, reference compound]
2. CCCC1(CCC)c2cc(C(=NOC(C)=O)c3ccccc3C)ccc2-c2ccc([N+](=O)[O-])cc21
3. CCCCCCC1(CCCCCC)c2cc(C(=NOC(C)=O)c3ccccc3C)ccc2-c2ccc([N+](=O)[O-])cc21
4. CCCC1(CCC)c2cc(C(=O)c3ccc([N+](=O)[O-])cc3)ccc2-c2ccc(C(=NOC(C)=O)C(C)C)cc21 (mixture of isomers)

[94.2, 88.7, 87.5, 87.0]
